# tested-on: T1, cynomolgus monkey GPVI on the cell surface of cynomolgus monkey platelets (cynomolgus monkey)
# T1 construct: whole, on cells; also called GPVI on cynomolgus monkey platelets
# assay-text: FACS on washed cynomolgus platelets from PRP (one donor), PE-conjugated detection antibody, median fluorescence
readout-kind: EC50 (read off the curve)

{"columns": ["binder", "EC50 (read off the curve)"],
 "data": [
  ["Fab #3 comprising a modified heavy chain constant region (Fab, V domains shown, Human Fab from the Ylanthia library; produced in HKB11 cells; also called Fab #3 mod; HC) VH: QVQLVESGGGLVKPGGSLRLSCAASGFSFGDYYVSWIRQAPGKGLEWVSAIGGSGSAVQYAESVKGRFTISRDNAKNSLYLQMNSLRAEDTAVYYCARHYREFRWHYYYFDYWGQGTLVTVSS VL: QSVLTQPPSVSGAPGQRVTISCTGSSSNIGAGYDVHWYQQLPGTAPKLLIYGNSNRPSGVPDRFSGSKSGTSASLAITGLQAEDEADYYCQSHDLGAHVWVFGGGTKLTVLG", "~0.6 µg/mL"]
]}

Exercise: Reported EC50 (read off the curve) for Reference Control Antibody RefFab #1 (humanized GPVI antibody of WO2011073954A2, SANOFI) (Fab, V domains shown, Cloned into mammalian Fab expression vectors; a glycine-serine linker (G4S)2 was added to the C-terminus of the Fab heavy chain) VH: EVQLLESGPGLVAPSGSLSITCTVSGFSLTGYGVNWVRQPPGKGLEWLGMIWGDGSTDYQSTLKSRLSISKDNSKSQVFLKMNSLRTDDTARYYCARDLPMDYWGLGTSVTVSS VL: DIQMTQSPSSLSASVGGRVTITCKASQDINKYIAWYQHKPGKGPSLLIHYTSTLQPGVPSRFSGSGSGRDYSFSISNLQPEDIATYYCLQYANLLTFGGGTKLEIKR : what is it?
Solution: ~0.5 µg/mL

Exercise: Reported EC50 (read off the curve) for Fab #4 comprising a modified heavy chain constant region (Fab, V domains shown, Human Fab from the Ylanthia library; produced in HKB11 cells; also called Fab #4 mod; HC) VH: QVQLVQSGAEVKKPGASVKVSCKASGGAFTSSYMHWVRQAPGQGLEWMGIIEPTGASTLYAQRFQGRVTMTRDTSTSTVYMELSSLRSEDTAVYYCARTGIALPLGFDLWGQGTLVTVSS VL: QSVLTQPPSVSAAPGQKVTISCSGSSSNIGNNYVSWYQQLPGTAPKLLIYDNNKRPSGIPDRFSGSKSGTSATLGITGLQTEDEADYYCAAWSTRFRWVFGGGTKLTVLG : what is it?
Solution: ~0.7 µg/mL

Exercise: Reported EC50 (read off the curve) for Fab #2 comprising a modified heavy chain constant region (Fab, V domains shown, Human Fab from the Ylanthia library; produced in HKB11 cells; also called Fab #2 mod; HC) VH: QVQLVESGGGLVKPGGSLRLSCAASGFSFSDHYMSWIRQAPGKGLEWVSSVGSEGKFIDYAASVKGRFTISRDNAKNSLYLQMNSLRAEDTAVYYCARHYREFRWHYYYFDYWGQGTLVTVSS VL: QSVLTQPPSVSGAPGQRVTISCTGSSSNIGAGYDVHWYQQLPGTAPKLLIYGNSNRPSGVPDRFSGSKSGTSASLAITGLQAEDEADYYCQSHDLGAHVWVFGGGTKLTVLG : what is it?
Solution: ~0.6 µg/mL
